Tested On: recombinant GST-tagged MDM2 / p53-peptide interaction (Homo sapiens)
Sequence (Q00987 whole entry): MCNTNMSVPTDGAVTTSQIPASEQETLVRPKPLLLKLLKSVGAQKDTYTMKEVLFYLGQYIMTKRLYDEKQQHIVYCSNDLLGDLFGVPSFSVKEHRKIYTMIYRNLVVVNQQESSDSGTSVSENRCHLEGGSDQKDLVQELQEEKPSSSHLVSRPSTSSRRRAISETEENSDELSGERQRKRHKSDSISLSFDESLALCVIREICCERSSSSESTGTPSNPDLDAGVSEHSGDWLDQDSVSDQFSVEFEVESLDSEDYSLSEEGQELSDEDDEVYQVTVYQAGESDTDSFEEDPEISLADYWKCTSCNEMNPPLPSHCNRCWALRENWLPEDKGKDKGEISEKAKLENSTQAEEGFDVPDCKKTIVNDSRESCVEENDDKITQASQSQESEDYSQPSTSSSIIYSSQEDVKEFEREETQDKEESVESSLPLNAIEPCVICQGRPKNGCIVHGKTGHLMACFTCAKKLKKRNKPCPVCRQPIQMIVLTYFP
Test Method Notes: HTRF assay of inhibition of the p53-MDM2 interaction
Format: binding
Condition: 0.02% BSA
Measured Property: IC50 (µM)
Write down the numeric answer in µM and omit the unit.

Consider the following illustrative entries.
>>> print(df.to_string())
                                   compound  measured_property  value_units  experimental_result
0  Cc1ccc(F)cc1[C@@H]1NC(=O)C[C@H](c2cc(Cl)ccc2OC(C)(C)C(=O)NCCN2CCCCC2)[C@@]12C(=O)Nc1cc(Cl)ccc12 (racemic)               IC50           µM                0.327
1  Cc1ccc(F)cc1[C@@H]1NC(=O)C[C@H](c2cc(Cl)ccc2OC2(C(=O)NS(=O)(=O)c3ccc(F)cc3)CCC2)[C@@]12C(=O)Nc1cc(Cl)ccc12 (racemic)               IC50           µM                0.065

For this compound ( Cc1ccc(F)cc1[C@@H]1NC(=O)C[C@H](c2cc(Cl)ccc2OC(C)(C)C(=O)NC2CCN(C)CC2)[C@@]12C(=O)Nc1cc(Cl)ccc12 (racemic) ), measured IC50 is 0.278

get_value(item= CN(C)C(=O)C(C)(C)Oc1ccc(Cl)cc1[C@H]1CC(=O)N[C@@H](c2cc(Cl)ccc2F)[C@]12C(=O)Nc1cc(Cl)ccc12 (racemic) [Example 34d] , readout=IC50) returns 0.155

The compound listed as Cc1ccc(F)cc1[C@@H]1NC(=O)C[C@H](c2cc(Cl)ccc2OC(C)(C)C(=O)N2CCC(F)(F)CC2)[C@@]12C(=O)Nc1cc(Cl)ccc12 [Example 29b] shows IC50 equal to 0.054
